Reported values of EC50 for individual entries
- target.under.test: T1, human DLL4 extracellular domain (human, UniProt Q9NR61 27-529)
- T1 construct: purified recombinant ECD; biotin-labelled or 6xHis-tagged depending on the assay; also called huDLL4 ECD; hu DLL4 ECD
- protocol.description: binding ELISA
The response must be a number in nM with no trailing unit.

>>> value_reported("h1A11.2 (antibody, V domains shown, humanized IgG; also called VH.1/VL.1a 1A11) VH: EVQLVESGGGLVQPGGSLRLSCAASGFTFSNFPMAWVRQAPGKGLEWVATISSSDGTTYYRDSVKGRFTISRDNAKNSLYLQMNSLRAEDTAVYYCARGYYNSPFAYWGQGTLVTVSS VL: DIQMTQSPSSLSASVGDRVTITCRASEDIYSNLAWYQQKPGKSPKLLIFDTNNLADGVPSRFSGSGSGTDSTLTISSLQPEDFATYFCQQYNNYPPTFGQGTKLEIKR")
0.08
>>> value_reported("h1A11.11 (antibody, V domains shown, humanized IgG; also called VH.1b/VL.1b 1A11) VH: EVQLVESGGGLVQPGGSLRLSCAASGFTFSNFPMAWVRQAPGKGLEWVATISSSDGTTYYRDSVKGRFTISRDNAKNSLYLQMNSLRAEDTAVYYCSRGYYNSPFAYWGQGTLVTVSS VL: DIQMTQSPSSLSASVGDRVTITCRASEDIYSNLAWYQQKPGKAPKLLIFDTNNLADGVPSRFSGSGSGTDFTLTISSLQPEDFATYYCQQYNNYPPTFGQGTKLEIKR")
0.07

Please look at the following binder next.
**Q:** What does the data say about its EC50? Entry: h1A11.9 (antibody, V domains shown, humanized IgG; also called VH.1b/VL.1 1A11) VH: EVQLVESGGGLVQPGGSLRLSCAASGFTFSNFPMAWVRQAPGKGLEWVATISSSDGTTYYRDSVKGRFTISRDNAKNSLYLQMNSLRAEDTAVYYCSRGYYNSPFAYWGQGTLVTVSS VL: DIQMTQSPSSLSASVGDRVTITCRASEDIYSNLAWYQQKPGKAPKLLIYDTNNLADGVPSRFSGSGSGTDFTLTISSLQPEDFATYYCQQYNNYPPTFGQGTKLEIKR
**A:** 0.07
